Hey, just so you know, these numbers are from ChEMBL document CHEMBL2034818.

system: Streptococcus pneumoniae; experiment: Inhibition of Streptococcus pneumoniae PBP1b using PATP thioester as substrate assessed as residual activity at 100 uM incubated for 60 mins prior to substrate addition by DNTB-based spectrophotometry in the presence of triton X 100
Listed below: Activity values for each entry.

# structure-notation, Activity / %
data = [
    ("O=C(Cc1ccccc1[N+](=O)[O-])NCB(O)O", 52),
    ("O=C(NCB(O)O)c1ccccc1[N+](=O)[O-]", 24),
    ("O=C(Cc1ccc(Cl)cc1)NCB(O)O", 69),
    ("COc1ccccc1C(=O)NCB(O)O", 67),
    ("COc1ccc(C(=O)NCB(O)O)cc1", 82),
    ("COc1ccc(C(=O)NCB(O)O)c(OC)c1", 76),
    ("O=C(NCB(O)O)c1ccccc1F", 14),
    ("O=C(Cc1ccccc1Cl)NCB(O)O", 96),
    ("O=C(NCB(O)O)c1ccc(Cl)cc1", 70),
    ("O=C(NCB(O)O)c1c(F)cccc1F", 7),
    ("O=C(NCB(O)O)c1ccccc1Cl", 20),
]

###

molecular target: D-alanyl-D-alanine carboxypeptidase (Actinomadura sp. R39) (UniProt P39045); experiment: Inhibition of Actinomadura sp. R39 PBP using S2d as substrate assessed as residual activity at 1 mM incubated for 60 mins prior to substrate addition by DTNB-based spectrophotometry in presence of triton X 100
Sequence (P39045 whole entry): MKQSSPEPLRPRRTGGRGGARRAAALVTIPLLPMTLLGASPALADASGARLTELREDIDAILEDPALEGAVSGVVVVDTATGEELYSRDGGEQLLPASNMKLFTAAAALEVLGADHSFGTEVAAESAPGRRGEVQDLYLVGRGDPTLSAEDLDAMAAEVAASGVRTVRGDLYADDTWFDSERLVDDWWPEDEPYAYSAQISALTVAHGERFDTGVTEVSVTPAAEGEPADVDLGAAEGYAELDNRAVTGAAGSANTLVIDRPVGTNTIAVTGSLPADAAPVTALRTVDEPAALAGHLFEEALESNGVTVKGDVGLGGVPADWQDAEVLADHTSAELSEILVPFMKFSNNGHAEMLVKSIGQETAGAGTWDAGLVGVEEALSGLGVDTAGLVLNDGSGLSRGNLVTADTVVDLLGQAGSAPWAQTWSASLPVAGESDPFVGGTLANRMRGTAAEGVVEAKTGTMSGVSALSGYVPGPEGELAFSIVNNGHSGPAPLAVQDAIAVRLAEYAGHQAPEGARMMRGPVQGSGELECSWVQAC
Listed below: Activity values for each entry.

# structure-notation, Activity, %
rows = [
    ("COc1ccc(C(=O)NCB(O)O)c(OC)c1", 69),
    ("O=C(NCB(O)O)c1cccs1", 73),
    ("O=C(NCB(O)O)c1ccccc1[N+](=O)[O-]", 0),
    ("O=C(NCB(O)O)c1ccccc1", 80),
    ("O=C(NCB(O)O)c1ccccc1Cl", 15),
]

###

target: Penicillin-binding protein 2X (Streptococcus pneumoniae R6) (UniProt P59676); assay: Inhibition of penicillin-sensitive Streptococcus pneumoniae R6 PBP2x using S2d as substrate assessed as residual activity at 1 mM incubated for 60 mins prior to substrate addition by DTNB-based spectrophotometry
Activity less than 70% is Fulfilled; Activity greater than or equal to 70% is Not fulfilled.

# structure-notation, label-value
measured = [
    ("COc1ccccc1C(=O)NCB(O)O", "Not fulfilled"),
    ("O=C(Cc1ccccc1[N+](=O)[O-])NCB(O)O", "Fulfilled"),
    ("O=C(NCB(O)O)c1c(F)cccc1F", "Fulfilled"),
    ("O=C(NCB(O)O)c1ccccc1", "Not fulfilled"),
    ("O=C(Cc1ccccc1Cl)NCB(O)O", "Fulfilled"),
    ("O=C(NCB(O)O)c1ccccc1C(F)(F)F", "Fulfilled"),
]

###

tested on: Streptococcus pneumoniae; assay: Inhibition of Streptococcus pneumoniae PBP1b assessed as residual activity at 1mM incubated for 60 mins prior to fluoresceyl-ampicillin labelling measured after 20 mins by SDS-PAGE analysis in the presence of triton X 100
Listed below: Activity values for each entry.
measured-attribute: Activity (%)

# structure-notation, measured-attribute, output-unit, test-value
data = [
    ("COc1ccc(C(=O)NCB(O)O)cc1", "Activity", "%", 38),
    ("O=C(NCB(O)O)c1ccccc1C(F)(F)F", "Activity", "%", 69),
    ("O=C(CCC1CCCC1)NCB(O)O", "Activity", "%", 59),
]

###

molecular target: D-alanyl-D-alanine carboxypeptidase (Actinomadura sp. R39) (UniProt P39045); assay: Inhibition of Actinomadura sp. R39 PBP using S2d as substrate assessed as residual activity at 1 mM incubated for 60 mins prior to substrate addition by DTNB-based spectrophotometry
The following ranges of Activity define the classes used here: 0 = under 50%, 1 = from 50% up to 70%, 2 = 70% and over

# structure-notation, label-value
records = [
    ("O=C(NCB(O)O)c1ccc(Cl)cc1", 2),
    ("Cc1ccccc1C(=O)NCB(O)O", 0),
    ("O=C(Cc1ccccc1[N+](=O)[O-])NCB(O)O", 1),
    ("CC(=O)NCB(O)O", 2),
    ("O=C(Cc1ccccc1Cl)NCB(O)O", 1),
    ("O=C(NCB(O)O)c1c(F)cccc1F", 0),
    ("NCB(O)O", 2),
]

###

Listed below: Activity values for each entry.
system: Staphylococcus aureus; experiment: Inhibition of penicillin-resistant Staphylococcus aureus PBP2a assessed as residual activity at 1 mM incubated for 4 hrs prior to prior to fluoresceyl-ampicillin labelling measured after 20 mins by SDS-PAGE analysis

# structure-notation, assay-system, Activity [%]
rows = [
    ("O=C(Cc1ccc(Cl)cc1)NCB(O)O", "Staphylococcus aureus", 89),
    ("COc1ccc(C(=O)NCB(O)O)cc1", "Staphylococcus aureus", 92),
    ("O=C(NCB(O)O)c1ccccc1F", "Staphylococcus aureus", 88),
    ("Cc1ccccc1C(=O)NCB(O)O", "Staphylococcus aureus", 88),
    ("COc1cccc(C(=O)NCB(O)O)c1", "Staphylococcus aureus", 91),
    ("O=C(Cc1ccccc1)NCB(O)O", "Staphylococcus aureus", 90),
    ("COc1ccc(C(=O)NCB(O)O)c(OC)c1", "Staphylococcus aureus", 91),
    ("O=C(NCB(O)O)c1ccccc1[N+](=O)[O-]", "Staphylococcus aureus", 92),
    ("O=C(NCB(O)O)c1c(F)cccc1F", "Staphylococcus aureus", 91),
]

###

tested on: Enterococcus faecium; experiment: Inhibition of penicillin-resistant Enterococcus faecium PBP5fm assessed as residual activity at 1 mM incubated for 4 hrs prior to prior to fluoresceyl-ampicillin labelling measured after 20 mins by SDS-PAGE analysis
measured-attribute: Activity (%)

# structure-notation, test-value
rows = [
    ("Cc1ccccc1C(=O)NCB(O)O", 85),
    ("O=C(NCB(O)O)c1ccccc1F", 83),
    ("O=C(CCC1CCCC1)NCB(O)O", 85),
    ("O=C(NCB(O)O)c1ccc(Cl)cc1", 93),
    ("O=C(NCB(O)O)c1ccccc1", 79),
    ("COc1ccc(C(=O)NCB(O)O)cc1OC", 78),
    ("O=C(NCB(O)O)c1c(F)cccc1F", 88),
    ("COc1ccc(C(=O)NCB(O)O)c(OC)c1", 86),
]

###

Listed below: Activity values for each entry.
Target: Penicillin-binding protein 2x (Streptococcus pneumoniae serotype 4 (strain ATCC BAA-334 / TIGR4))
Sequence (whole entry): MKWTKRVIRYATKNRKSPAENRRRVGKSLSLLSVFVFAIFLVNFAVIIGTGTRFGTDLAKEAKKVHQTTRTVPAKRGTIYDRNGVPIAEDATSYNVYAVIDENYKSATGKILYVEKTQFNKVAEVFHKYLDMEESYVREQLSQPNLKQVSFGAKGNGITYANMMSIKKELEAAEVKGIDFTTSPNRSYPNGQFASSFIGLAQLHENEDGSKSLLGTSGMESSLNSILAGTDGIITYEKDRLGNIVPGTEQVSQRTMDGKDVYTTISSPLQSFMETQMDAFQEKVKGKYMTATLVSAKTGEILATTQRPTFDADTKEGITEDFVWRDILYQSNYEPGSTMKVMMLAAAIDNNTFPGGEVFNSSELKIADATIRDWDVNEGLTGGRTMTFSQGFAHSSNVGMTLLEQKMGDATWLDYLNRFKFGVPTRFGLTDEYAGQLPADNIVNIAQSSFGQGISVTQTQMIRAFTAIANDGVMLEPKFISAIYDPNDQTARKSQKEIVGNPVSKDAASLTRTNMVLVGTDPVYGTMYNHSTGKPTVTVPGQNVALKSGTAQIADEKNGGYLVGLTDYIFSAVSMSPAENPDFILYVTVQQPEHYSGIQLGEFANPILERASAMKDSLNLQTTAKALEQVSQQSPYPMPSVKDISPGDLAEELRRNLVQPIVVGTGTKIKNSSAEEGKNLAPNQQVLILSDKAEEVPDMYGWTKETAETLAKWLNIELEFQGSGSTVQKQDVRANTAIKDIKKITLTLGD
Test: Inhibition of penicillin-resistant Streptococcus pneumoniae 5204 PBP2x using S2d as substrate assessed as residual activity at 1 mM incubated for 4 hrs prior to substrate addition by DNTB-based spectrophotometry

# structure-notation, output-unit, Activity
rows = [
    ("O=C(NCB(O)O)c1ccc(Cl)cc1", "%", 101),
    ("COc1ccc(C(=O)NCB(O)O)cc1", "%", 94),
    ("O=C(Cc1ccccc1Cl)NCB(O)O", "%", 90),
    ("COc1cccc(C(=O)NCB(O)O)c1", "%", 101),
    ("O=C(CCc1ccccc1)NCB(O)O", "%", 99),
]

###

biological target: Penicillin-binding protein 2X (Streptococcus pneumoniae R6)
Sequence (P59676 whole entry): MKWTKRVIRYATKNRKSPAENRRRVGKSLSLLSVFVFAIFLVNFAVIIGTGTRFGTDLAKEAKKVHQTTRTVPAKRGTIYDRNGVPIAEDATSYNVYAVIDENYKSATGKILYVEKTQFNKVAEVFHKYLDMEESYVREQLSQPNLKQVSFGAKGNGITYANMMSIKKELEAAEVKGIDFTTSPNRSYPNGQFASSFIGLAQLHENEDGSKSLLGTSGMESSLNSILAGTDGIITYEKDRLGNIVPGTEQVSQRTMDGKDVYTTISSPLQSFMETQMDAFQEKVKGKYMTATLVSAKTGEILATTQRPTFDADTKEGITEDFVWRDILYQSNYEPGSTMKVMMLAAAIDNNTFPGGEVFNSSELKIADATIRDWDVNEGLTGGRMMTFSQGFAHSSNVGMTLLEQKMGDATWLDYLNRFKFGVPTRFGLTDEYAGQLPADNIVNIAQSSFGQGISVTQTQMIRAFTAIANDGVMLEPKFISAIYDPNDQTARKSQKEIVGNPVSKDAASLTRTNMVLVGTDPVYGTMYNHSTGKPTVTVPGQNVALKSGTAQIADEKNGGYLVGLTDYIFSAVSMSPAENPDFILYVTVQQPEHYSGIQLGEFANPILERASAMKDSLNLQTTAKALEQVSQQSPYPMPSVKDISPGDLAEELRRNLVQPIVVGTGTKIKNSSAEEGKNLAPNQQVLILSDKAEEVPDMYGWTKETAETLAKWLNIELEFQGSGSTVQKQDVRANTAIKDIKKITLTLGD
Listed below: IC50 values for each entry.

# structure-notation, output-unit, IC50
data = [
    ("O=C(Cc1ccccc1Cl)NCB(O)O", "µM", 649),
    ("O=C(NCB(O)O)c1c(F)cccc1F", "µM", 906),
    ("O=C(Cc1ccc(Cl)cc1)NCB(O)O", "µM", 376),
]
